pIC50 values for the compounds below.
tested on: B16-F10; test: Antiproliferative activity against mouse B16F10 cells after 72 hrs by MTS/PMS assay; assay type: functional, cell-based; settings: B16-F10, 72 h
Please keep in mind that pIC50 is minus log10 of the molar concentration; only the number is needed.

Item COc1cccc(-c2cc(C(=O)Nc3cc4ccc(OC5CC(C)C[C@@H](O)[C@H]5O)c(C)c4oc3=O)ccc2OC)c1 (some centres undefined) has what recorded pIC50?
5.60

Item COc1cccc(-c2cc(C(=O)Nc3cc4ccc(O[C@@H]5OC[C@@H](O)[C@H]5O)c(OC)c4oc3=O)ccc2OC)c1 has what recorded pIC50?
5.89

Item COc1cccc(-c2cc(C(=O)Nc3cc4ccc(OC5CNC[C@@H](O)[C@H]5O)c(OC)c4oc3=O)ccc2OC)c1 (some centres undefined) has what recorded pIC50?
4.93

Item COc1cccc(-c2cc(C(=O)Nc3cc4ccc(O[C@@H]5OCC[C@H]5O)c(C)c4oc3=O)ccc2OC)c1 has what recorded pIC50?
4.37

---

test: Antiproliferative activity against human androgen-independent PC3MM2 cells after 72 hrs by MTS/PMS assay; format: functional, cell-based; conditions: PC3MM2, 72 h
PROPERTY_NAME: pIC50
Please keep in mind that pIC50 is minus log10 of the molar concentration; only the number is needed.

Some compounds with known pIC50 results, for comparison:
* COc1cccc(-c2cc(C(=O)Nc3cc4cc(OC)c(O[C@H]5OCC[C@@H](O)[C@H]5O)c(C)c4oc3=O)ccc2OC)c1 | 4.60
* COc1cccc(-c2cc(C(=O)Nc3cc4ccc(O[C@@H]5OC[C@@H](O)[C@H]5O)c(OC)c4oc3=O)ccc2OC)c1 | 4.97
* CC(C)=CCc1cc(C(=O)Nc2cc3ccc(OCCCN(C)C)c(C)c3oc2=O)ccc1O | 5.74
* COc1cccc(-c2cc(C(=O)Nc3cc4ccc(O[C@@H]5OCC[C@@H](O)[C@H]5O)c(OC)c4oc3=O)ccc2OC)c1 | 4.97
* COc1cccc(-c2cc(C(=O)Nc3cc4cc(OC)c(OC(N)=O)c(C)c4oc3=O)ccc2OC)c1 | 5.58

Item COc1cccc(-c2cc(C(=O)Nc3cc4cc(OC)c(OC5CNC[C@@H](O)[C@H]5O)c(C)c4oc3=O)ccc2OC)c1 (stereo partly drawn) has what recorded pIC50?
5.16

Item COc1cccc(-c2cc(C(=O)Nc3cc4ccc(O[C@@H]5OCCC[C@H]5O)c(C)c4oc3=O)ccc2OC)c1 has what recorded pIC50?
5.00

---

system: SK-BR-3; test: Antiproliferative activity against human SKBR3 cells expressing HER2 after 72 hrs by MTS/PMS assay; type: functional, cell-based; settings: SK-BR-3, 72 h
PROPERTY_NAME: IC50 (µM)
Numeric answer only, unit µM assumed.

• COc1cccc(-c2cc(C(=O)Nc3cc4cc(OC)c(OC5CN(C)C[C@@H](O)[C@H]5O)c(C)c4oc3=O)ccc2OC)c1 (stereo partly drawn) = 2.77

Item COc1cccc(-c2cc(C(=O)Nc3cc4ccc(OC5C=CCNC5)c(C)c4oc3=O)ccc2OC)c1 (stereo not drawn) has what recorded IC50?
1.61

Item COc1cccc(-c2cc(C(=O)Nc3cc4cc(OC)c(OCCCN(C)C)c(C)c4oc3=O)ccc2OC)c1 has what recorded IC50?
0.49

Item COc1cccc(-c2cc(C(=O)Nc3cc4ccc(OC(N)=O)c(OC)c4oc3=O)ccc2OC)c1 has what recorded IC50?
76.8

Item COc1c(OC2CCN(C)CC2)ccc2cc(NC(=O)c3cc4ccccc4[nH]3)c(=O)oc12 has what recorded IC50?
2.58
